Cited source: PubChem BioAssay AID1645863

STUDY SYSTEM: Ubiquitin carboxyl-terminal hydrolase 10 (Homo sapiens) (UniProt Q14694)
Sequence (Q14694 whole entry, looked up): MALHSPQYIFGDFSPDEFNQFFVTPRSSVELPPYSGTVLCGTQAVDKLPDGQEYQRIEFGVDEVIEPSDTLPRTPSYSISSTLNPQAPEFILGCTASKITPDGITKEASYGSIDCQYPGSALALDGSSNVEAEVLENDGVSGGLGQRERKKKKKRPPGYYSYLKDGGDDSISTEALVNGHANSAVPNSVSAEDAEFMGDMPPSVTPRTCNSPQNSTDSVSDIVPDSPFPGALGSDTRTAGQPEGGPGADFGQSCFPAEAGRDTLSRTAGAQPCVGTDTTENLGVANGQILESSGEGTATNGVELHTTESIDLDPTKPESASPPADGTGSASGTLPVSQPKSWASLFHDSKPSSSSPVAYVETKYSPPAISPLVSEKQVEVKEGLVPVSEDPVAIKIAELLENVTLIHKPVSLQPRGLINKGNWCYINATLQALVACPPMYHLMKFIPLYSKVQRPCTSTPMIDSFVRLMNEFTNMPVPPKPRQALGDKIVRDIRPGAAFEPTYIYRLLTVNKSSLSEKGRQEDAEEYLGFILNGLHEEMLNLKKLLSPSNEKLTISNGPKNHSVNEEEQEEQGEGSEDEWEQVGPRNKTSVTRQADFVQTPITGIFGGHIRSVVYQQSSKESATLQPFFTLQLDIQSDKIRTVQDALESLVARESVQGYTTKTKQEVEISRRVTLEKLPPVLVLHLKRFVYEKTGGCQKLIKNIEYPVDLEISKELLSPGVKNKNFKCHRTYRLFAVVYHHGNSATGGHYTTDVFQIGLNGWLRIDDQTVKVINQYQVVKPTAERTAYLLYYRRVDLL
ASSAY INFO: ubiquitin-specific protease 10 DUB inhibitors, concentration-effect, biochemical, verification of primary screen actives (AID 1645863);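 note: potency values describe inhibition of USP10 cleavage of a fluorogenic ubiquitin substrate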
SETTINGS: USP10 deubiquitinase enzymatic assay
The source made the active and inactive calls. The rule behind the calls is not given here.
Give one outcome, nothing more. List: True = active, False = inactive

Lookup: Check the results log: what was the call for COc1ccc(-c2c(NC(=O)C3COc4ccccc4O3)n[nH]c2C)cc1OC (stereo not given) ?
Found: False

Lookup: Check the results log: what was the call for COc1ccc(OC)c(NC2=NS(=O)(=O)C(c3cccc(Br)c3)=C2C)c1 ?
Found: False

Lookup: Check the results log: what was the call for CCc1cccc(CC)c1NC(=O)COC(=O)c1cc2cccc(OC)c2oc1=O ?
Found: False

Lookup: Check the results log: what was the call for CNc1ncc(C(=O)N2CCOC(C(=O)N3CCCCCC3)C2)cn1 (stereo not given) ?
Found: False

----------
STUDY SYSTEM: Ubiquitin carboxyl-terminal hydrolase 10 (Homo sapiens) (UniProt Q14694)
ASSAY INFO: ubiquitin-specific protease 10 DUB inhibitors, concentration-effect, biochemical, verification of primary screen actives (AID 1645863)
SETTINGS: USP10 deubiquitinase enzymatic assay
The source made the active and inactive calls. How the calls were made is not given here.
Give one outcome, nothing more. List: active, inactive

Lookup: Check the results log: what was the call for COC(=O)c1ccc(C2c3[nH]c4ccccc4c3C[C@@H]3C(=O)N(c4ccc5c(c4)OCCO5)C(=O)N23)cc1 (some centres undefined) ?
Found: inactive

Lookup: Check the results log: what was the call for COc1ccc(OC)c(NC(=O)c2cc(Cl)ccc2OC)c1 ?
Found: inactive

Lookup: Check the results log: what was the call for O=C(CC1C(=O)Nc2nc3ccccc3n21)Nc1cccc2ccccc12 (centres undefined) ?
Found: active

----------
STUDY SYSTEM: UniProtKB Q14694
ASSAY INFO: ubiquitin-specific protease 10 DUB inhibitors, concentration-effect, biochemical, verification of primary screen actives (AID 1645863)
SETTINGS: USP10 deubiquitinase enzymatic assay
Active and inactive are the calls of the source. How the calls were made is not given here.
Give one outcome, nothing more. List: active, inactive

Lookup: Check the results log: what was the call for CSc1ccc(CNC(=O)Cn2c(=O)[nH]c3c(-c4ccccc4)c[nH]c3c2=O)cc1 ?
Found: inactive

Lookup: Check the results log: what was the call for COc1ccc(C2/C(=C(\O)c3ccccc3)C(=O)C(=O)N2c2nc3ccc(F)cc3s2)cc1 (stereo not given) ?
Found: active

Lookup: Check the results log: what was the call for O=c1cc(-c2ccc(O)c(O)c2)oc2cc(O[C@@H]3O[C@H](CO)[C@@H](O)[C@H](O)[C@H]3O)cc(O)c12 ?
Found: active

Lookup: Check the results log: what was the call for O=C(CCCc1nnc2c(=O)n(-c3cccc(F)c3)ccn12)Nc1ccccc1 ?
Found: inactive

Lookup: Check the results log: what was the call for O=C(CCn1c(=O)c2ccccc2n(Cc2ccc(F)cc2Cl)c1=O)NCc1ccco1 ?
Found: active

Lookup: Check the results log: what was the call for COc1ccc(Nc2nnc(Cc3ccc(Cl)cc3)c(=O)[nH]2)cc1 ?
Found: active

Lookup: Check the results log: what was the call for CC[C@@H](C(=O)[C@@H](C)[C@@H](O)[C@H](C)CCc1ccc(C)c(O)c1C(=O)O)[C@@H]1O[C@](CC)([C@H]2CC[C@](O)(CC)[C@H](C)O2)C[C@@H]1C ?
Found: active

Lookup: Check the results log: what was the call for CCCCCCCC1OC(=O)Cc2cc(O)c(O)c(O)c21 (stereo not given) ?
Found: active

***
Lookup: Check the results log: what was the call for Cc1ccc(CS(=O)(=O)c2cn(CC(=O)NCCc3ccccc3)c3ccccc23)cc1 ?
Found: inactive

Lookup: Check the results log: what was the call for O=C(Nc1ccccc1)[C@@H]1[C@@H]2C(=O)N(c3ccc([N+](=O)[O-])cc3)C(=O)[C@@H]2[C@H]2c3ccccc3C=CN12 ?
Found: inactive

Lookup: Check the results log: what was the call for Cc1cc(=O)n(CC(=O)Nc2ccccc2C)c(Nc2ccc(F)cc2)n1 ?
Found: active

Lookup: Check the results log: what was the call for Cc1cc(NS(=O)(=O)c2ccc(NC(=O)COc3ccc(Cl)cc3)cc2)no1 ?
Found: inactive

Lookup: Check the results log: what was the call for COc1ccc(-n2ccn3c(CCC(=O)Nc4cccc(C)c4)nnc3c2=O)cc1 ?
Found: inactive

----------
STUDY SYSTEM: Ubiquitin carboxyl-terminal hydrolase 10 (Homo sapiens) (UniProt Q14694)
ASSAY INFO: ubiquitin-specific protease 10 DUB inhibitors, concentration-effect, biochemical, verification of primary screen actives (AID 1645863)
SETTINGS: USP10 deubiquitinase enzymatic assay
The source made the active and inactive calls. No rule for the calls is given here.
Give one outcome, nothing more. List: active, inactive

Lookup: Check the results log: what was the call for COc1cc(NC(=O)c2ccc3c(c2)OCO3)ccc1-c1cc2ccccc2oc1=O ?
Found: inactive

Lookup: Check the results log: what was the call for CC(C)CCCCCCCCCCC(=O)N(C)[C@H](CO)C(=O)N[C@H](C)C(=O)NCC(=O)N(C)C1C(=O)N[C@@H](C)C(=O)NC(C(=O)O)Cc2ccc(O)c(c2)-c2cc1ccc2O (stereo not given in full) ?
Found: active

Lookup: Check the results log: what was the call for COC(=O)c1ccccc1NC(=O)C1CCCN(c2nnc(-n3cccc3)s2)C1 (stereo not given) ?
Found: inactive

Lookup: Check the results log: what was the call for O=C(Cn1c(COc2ccccc2)nc2ccccc21)Nc1cc(Cl)ccc1Cl ?
Found: inactive

Lookup: Check the results log: what was the call for Cc1ccccc1NC(=O)CSC1=NC2(CCCCC2)Nc2ccccc21 ?
Found: inactive

Lookup: Check the results log: what was the call for Cc1ccc(Cn2c(C(=O)O)c(CNCc3ccco3)c3ccccc32)cc1 ?
Found: inactive

Lookup: Check the results log: what was the call for Cc1cccc(NC(=O)CNC(=O)c2ccc(-c3noc(C4CCCC4)n3)cc2)c1C ?
Found: inactive

Lookup: Check the results log: what was the call for C[C@@H]1CO[C@@H]2C3=C(C(=O)C=CC3=O)[C@H]3OC(=O)[C@@H]4CCC5[C@@H]1CCC52C34 (stereo not given in full) ?
Found: active

Lookup: Check the results log: what was the call for CCOc1ccc(S(=O)(=O)Nc2ccc[nH]c2=O)cc1 ?
Found: inactive

Lookup: Check the results log: what was the call for CCCCN1CC(C(=O)Nc2ccc(C(=O)Nc3ccc(C(N)=O)cc3)cc2)CC1=O (stereo not given) ?
Found: inactive

***
Lookup: Check the results log: what was the call for O=C(Cn1cnc2cc([N+](=O)[O-])ccc2c1=O)NCc1ccc2c(c1)OCO2 ?
Found: inactive

Lookup: Check the results log: what was the call for Cc1c(C(=O)Nc2ccc(Oc3ccccc3)cc2)nnn1-c1cccc(Cl)c1 ?
Found: inactive

Lookup: Check the results log: what was the call for O=C(COc1ccc(Cl)cc1)Nc1noc(-c2ccccc2)n1 ?
Found: active

----------
Entries annotated with measured IC50
STUDY SYSTEM: Ubiquitin carboxyl-terminal hydrolase 10 (Homo sapiens)
ASSAY INFO: ubiquitin-specific protease 10 DUB inhibitors, concentration-effect, biochemical, verification of primary screen actives (AID 1645863);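 note: potency values describe inhibition of USP10 cleavage of a fluorogenic ubiquitin substrate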
SETTINGS: USP10 deubiquitinase enzymatic assay
Activity calls are given as the source filed them. The rule behind the calls is not given here.

Lookup: Return value of IC50 for input COc1cc(CC(=O)Nc2ccccc2N2CCOCC2)cc(OC)c1OC , no commentary.
Found: > 40 µM (inactive)

***
Lookup: Return value of IC50 for input COCCCNC(=O)c1ccc(Cn2c(=O)c3ccccc3n(CC(=O)Nc3ccc(OC)cc3)c2=O)cc1 , no commentary.
Found: > 40 µM (inactive)

----------
STUDY SYSTEM: Ubiquitin carboxyl-terminal hydrolase 10 (Homo sapiens) (UniProt Q14694)
ASSAY INFO: ubiquitin-specific protease 10 DUB inhibitors, concentration-effect, biochemical, verification of primary screen actives (AID 1645863);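 note: potency values describe inhibition of USP10 cleavage of a fluorogenic ubiquitin substrate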
SETTINGS: USP10 deubiquitinase enzymatic assay
Calls of active or inactive are those of the source. No rule for the calls is given here.
Give one outcome, nothing more. List: active, inactive

Lookup: Check the results log: what was the call for C=C/C(=C/C(=O)C[C@H](C)C[C@@H](C)CC[C@H](O)[C@H](C)C(=O)CC(O)[C@H](C)[C@@H](C)OC(=O)C[C@@H](O)C1=C(C)C(=O)OC1=O)CC (some centres undefined) ?
Found: active

***
Lookup: Check the results log: what was the call for O=C(NCCN1CCOCC1)c1cn2cc(Cl)ccc2n1 ?
Found: inactive

----------
STUDY SYSTEM: Ubiquitin carboxyl-terminal hydrolase 10 (Homo sapiens)
ASSAY INFO: ubiquitin-specific protease 10 DUB inhibitors, concentration-effect, biochemical, verification of primary screen actives (AID 1645863);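 note: potency values describe inhibition of USP10 cleavage of a fluorogenic ubiquitin substrate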
SETTINGS: USP10 deubiquitinase enzymatic assay
Calls of active or inactive are those of the source. How the calls were made is not given here.
Give one outcome, nothing more. List: active, inactive

Record excerpt, results attached:
Lookup: Check the results log: what was the call for Cc1ccc2[nH]c(=O)c(-c3nc4ccc(C)cn4c3NCc3ccc(F)cc3)cc2c1 ?
Found: active

Lookup: Check the results log: what was the call for CN(C)[C@@H]1C(=O)C(C(N)=O)=C(O)[C@@]2(O)C(=O)C3=C(O)c4c(O)cccc4[C@@](C)(O)C3[C@H](O)[C@@H]12 (stereo partly specified) ?
Found: active

Lookup: Check the results log: what was the call for COc1ccc(S(=O)(=O)NCc2ccc3c(c2)cc(C)n3C)cc1 ?
Found: inactive

***
Lookup: Check the results log: what was the call for COc1cccc(C(=O)Nc2ccc(SC(C)C(=O)Nc3ccc(C(N)=O)cc3)cc2)c1 (stereo unspecified) ?
Found: active

Lookup: Check the results log: what was the call for CC(C)CC(NC(=O)c1ccc(Cl)cc1Cl)c1nc2ccccc2[nH]1 (stereo unspecified) ?
Found: inactive

Lookup: Check the results log: what was the call for CN(C(=O)C1(c2ccccc2)CC1)c1nc2c(s1)CCc1occc1-2 ?
Found: inactive
